Provenance of the data: patent US20180334496A1

biological target: T1, human complement factor D purified from serum (human, UniProt P00746 26-253); experiment: SPR MX96
T1 construct: serum-purified (CompTech); also called hCFD-Comptech; CFD
T1 sequence (P00746 26-253): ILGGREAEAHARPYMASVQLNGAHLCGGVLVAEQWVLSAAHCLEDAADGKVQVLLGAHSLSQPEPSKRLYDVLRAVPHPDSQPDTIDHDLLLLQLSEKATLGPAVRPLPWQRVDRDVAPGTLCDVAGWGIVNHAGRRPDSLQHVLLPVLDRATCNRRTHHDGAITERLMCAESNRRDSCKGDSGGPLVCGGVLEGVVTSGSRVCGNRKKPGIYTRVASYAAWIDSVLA
readout: pKd
Remember the convention: pKd equals -log10 of concentration in molar.

// below: answered binders
Exercise: May I ask what pKd has been recorded for KCD030 (antibody, V domains shown) VH: QVQLQQSGAELAKPGASVKMSCKASGYTFTNYWMHWVKQRPGQGLEWIGYINPSIGYTEYNQKFKDKATLTADKSSSTAYMQLSSLTSEDSAVFYCATFIYYAMDYWGQGTSVTVSS VL: DIQMNQSPSSLSASLGDTITITCHASQNINVWLSWYQQKPGNIPKLLIYKASNLHTGVPSRFSGSGSGTGFTLTISSLQPEDIATYYCQQGQSYPYTFGGGTKLEIK ?
Key: 8.38

Exercise: Request: KCD137 (antibody, V domains shown) VH: EVQLVESGGDLVKPGGSLKLSCAASGFTFSGYGMSWVRQIPDKRLEWVAISSRDNSFTYYPDSVKGRFTISRDNAKNTLYLQMSSLKSEDTALYFCTRHPYLPTGGYVMDYWGQGTSVTVSS VL: DIVMTQSHKFMSTSVGDRVSITCKASQDVGTAVAWYQQRPGQSPKLLIYWASTRHTGVPDRFTGSGSGTDFTLTVSNVQSEDLADYFCQQYTSYPLTFGAGTKLELK
Key: 9.30

For the next question, use this binder.
Exercise: May I ask what pKd has been recorded for KCD125 (antibody, V domains shown) VH: EVQLQQSGAELVRPGSSVKMSCKTSGNTFTSYGINWVKQRPGQGLEWIGYIYIGTGYTEYNEKFKGKATLTSDTSSSTAYMQLSSLTSEDSAIYFCVRKAYGNYGFDYWGQGTTLTVSS VL: DIQMTQSPSSLSASLGERVSLTCRASQEISGYLSWLQQKPDGTIKRLIYAASTLDSGVPKRFSGSRSGSDYSLTISSLESEDFADYYCLQYASYPFTFGSGTKLEIK ?
Key: 8.42
